Data origin, for the record: patent US8318736B2

molecular target: HIV strain MDR (L100I, K103N, Y181C, E138G, V1791, L2214F, V278V/I and A327A/V in HIV reverse transcriptase); assay: microbe, parasite or virus in culture; type: cell-based, HIV-1; conditions: MDR strain; MT4 LTR-EGFP cells
Would you mind labelling by MDR pEC50 (-log EC50)? At or over 6 is 1.0, under is 0.0.

MOLECULE	LABEL_CLASS
COCc1nc(Nc2ccc(C#N)cc2)nc(Nc2c(C)cc(C=CC#N)cc2C)c1C(=O)NCC1CCCO1 (mixture of isomers)	1.0
COCc1nc(Nc2ccc(C#N)cc2)nc(Nc2c(C)cc(C=CC#N)cc2C)c1C(=O)N(C)CCN(C)C (mixture of isomers)	0.0
COCCNC(=O)c1c(COC)nc(Nc2ccc(C#N)cc2)nc1Nc1c(C)cc(C=CC#N)cc1C (mixture of isomers)	1.0
COCc1nc(Nc2ccc(C#N)cc2)nc(Nc2c(C)cc(C=CC#N)cc2C)c1C(=O)NCc1cccnc1 (mixture of isomers)	1.0
COCc1nc(Nc2ccc(C#N)cc2)nc(Nc2c(C)cc(C=CC#N)cc2C)c1C(=O)NCCc1ccc(S(N)(=O)=O)cc1 (mixture of isomers)	1.0

Field: next molecule
Query string: Hi, just wondering whether COCc1nc(Nc2ccc(C#N)cc2)nc(Nc2c(C)cc(C=CC#N)cc2C)c1C(=O)NCc1ccncc1 (mixture of isomers) shows MDR pEC50 (-log EC50) of 6 or higher.
Result string: 1.0

* * *

test system: HIV strain K103N + Y181C; test: microbe, parasite or virus in culture; assay type: cell-based, HIV-1; details: Human immunodeficiency virus 1, 72 h, read-out: K103N + Y181C pEC50 (-log EC50) (converted)
EXPERIMENTAL_ENDPOINT: log10(EC50) (log10 of the value in µM)
For clarity, the numbers are log10 values of EC50 expressed in µM.

Check out these entries, answers already filled in.
COMPOUND	REPORTED_VALUE
COCc1nc(Nc2ccc(C#N)cc2)nc(Nc2c(C)cc(/C=C/C#N)cc2C)c1-c1ccsc1	-1.67
COCc1nc(Nc2ccc(C#N)cc2)nc(Nc2c(C)cc(/C=C/C#N)cc2C)c1-c1ccco1	-1.78
C=CC(O)c1c(COC)nc(Nc2ccc(C#N)cc2)nc1Nc1c(C)cc(/C=C/C#N)cc1C (stereo not shown)	-2.06
COCc1nc(Nc2ccc(C#N)cc2)nc(Nc2c(C)cc(/C=C/C#N)cc2C)c1-c1ccoc1	-1.91

Now for another entry.
Query string: Value lookup for log10(EC50); key = `COCc1nc(Nc2ccc(C#N)cc2)nc(Nc2c(C)cc(/C=C/C#N)cc2C)c1-c1cnccc1OC`
Result string: -1.03

* * *

Target: HIV strain MDR (L100I, K103N, Y181C, E138G, V1791, L2214F, V278V/I and A327A/V in HIV reverse transcriptase)
Assay: microbe, parasite or virus in culture
Format: cell-based, HIV-1
Details: MDR strain; MT4 LTR-EGFP cells
Description: Image analysis allowed very sensitive detection of viral infection. “MDR” refers to a strain that contains mutations L100I, K103N, Y181C, E138G, V1791, L2214F, V278V/I and A327A/V in HIV reverse transcriptase.
MDR pEC50 (-log EC50) values for the molecules below.
Kindly provide the number alone.

Reference set (4 entries):
MOLECULE	MDR pEC50 (-log EC50)
COCCNC(=O)c1c(COC)nc(Nc2ccc(C#N)cc2)nc1Nc1c(C)cc(C=C(C)C#N)cc1C (mixture of isomers) [Compound 32]	7.05
COCc1nc(Nc2ccc(C#N)cc2)nc(Nc2c(C)cc(/C=C/C#N)cc2C)c1C(=O)NCCc1ccccn1 [Compound 15]	6.43
COCc1nc(Nc2ccc(C#N)cc2)nc(Nc2c(C)cc(C=CC#N)cc2C)c1C(=O)NCCNC(C)=O (mixture of isomers) [Compound 12]	6.68
COCc1nc(Nc2ccc(C#N)cc2)nc(Nc2c(C)cc(C=CC#N)cc2C)c1C(=O)NCCN1CCOCC1 (mixture of isomers) [Compound 14]	6.42

Query string: Would you mind telling me what MDR pEC50 (-log EC50) value was observed for COCc1nc(Nc2ccc(C#N)cc2)nc(Nc2c(C)cc(/C=C/C#N)cc2C)c1C(=O)N1CCN(CCO)CC1 [Compound 17] ?
Result string: 5.19

Query string: # repeat for COCc1nc(Nc2ccc(C#N)cc2)nc(Nc2c(C)cc(C=CC#N)cc2C)c1C(=O)N(C)OC (mixture of isomers) [Compound 25]
Result string: 6.27

* * *

# melting point listing for each entry below
Give just the number in °C; leave the unit off.

INPUT_SMILES	REPORTED_VALUE
COCc1nc(Nc2ccc(C#N)cc2)nc(Nc2ccc(/C=C/C#N)cc2)c1/C=C/c1ccc(C)cc1	139

Query string: What measured melting point goes with `COCc1nc(Nc2ccc(C#N)cc2)nc(Nc2c(C)cc(/C=C/C#N)cc2C)c1-c1ccoc1` ?
Result string: 122

Query string: Please answer likewise for `COCc1nc(Nc2ccc(C#N)cc2)nc(Nc2ccc(/C=C/C#N)cc2)c1/C=C/c1ccc(OC)cc1`
Result string: 207

* * *

# Lookup of reported pSI (IIIB) (-log SI; SI = ratio of CC50 to EC50) keyed by entry
tested on: HIV strain IIIB (wild type); experiment: microbe, parasite or virus in culture; settings: strain IIIB; CC50 in mock-infected MT4 CMV-EGFP cells
The answer should be a number; do not append a unit.

MOLECULE	REPORTED_VALUE
COCc1nc(Nc2ccc(C#N)cc2)nc(Nc2c(C)cc(C=CC#N)cc2C)c1C(=O)NCc1ccncc1 (mixture of isomers)	3.59
COCCNC(=O)c1c(COC)nc(Nc2ccc(C#N)cc2)nc1Oc1c(C)cc(C=CC#N)cc1C (mixture of isomers)	3.76
COCc1nc(Nc2ccc(C#N)cc2)nc(Nc2c(C)cc(C=CC#N)cc2C)c1C(=O)NCc1cccnc1 (mixture of isomers)	3.13

Now turn to the next molecule.
Query string: Lookup: pSI (IIIB) (-log SI; SI = ratio of CC50 to EC50) / HIV strain IIIB (wild type) / `COCc1nc(Nc2ccc(C#N)cc2)nc(Nc2c(C)cc(/C=C/C#N)cc2C)c1C(=O)NCC(OC)OC`
Result string: 3.83

* * *

tested on: HIV strain IIIB (wild type); assay: microbe, parasite or virus in culture; conditions: strain IIIB; CC50 in mock-infected MT4 CMV-EGFP cells
EXPERIMENTAL_ENDPOINT: pSI (IIIB) (-log SI; SI = ratio of CC50 to EC50)
Please reply with the number alone, leaving off any unit.

Some entries whose results are on file:
COMPOUND	TARGET_UNDER_TEST	REPORTED_VALUE
COCc1nc(Nc2ccc(C#N)cc2)nc(Nc2c(C)cc(/C=C/C#N)cc2C)c1C(=O)NCCN(C)C [Compound 13]	HIV strain IIIB (wild type)	3.32
COCc1nc(Nc2ccc(C#N)cc2)nc(Nc2c(C)cc(/C=C/C#N)cc2C)c1-c1ccco1 [Compound 6]	HIV strain IIIB (wild type)	3.61
COCc1nc(Nc2ccc(C#N)cc2)nc(Nc2c(C)cc(C=CC#N)cc2C)c1C(=O)NCC1CCCO1 (mixture of isomers) [Compound 9]	HIV strain IIIB (wild type)	3.55
COCc1nc(Nc2ccc(C#N)cc2)nc(Nc2c(C)cc(/C=C/C#N)cc2C)c1C(=O)NC1CC1 [Compound 23]	HIV strain IIIB (wild type)	3.87
COCc1nc(Nc2ccc(C#N)cc2)nc(Nc2c(C)cc(C=CC#N)cc2C)c1C(=O)NCCNC(C)=O (mixture of isomers) [Compound 12]	HIV strain IIIB (wild type)	3.59
COCc1nc(Nc2ccc(C#N)cc2)nc(Nc2c(C)cc(/C=C/C#N)cc2C)c1-c1cccnc1 [Compound 2]	HIV strain IIIB (wild type)	3.65
COCc1nc(Nc2ccc(C#N)cc2)nc(Nc2c(C)cc(/C=C/C#N)cc2C)c1C(=O)NCCc1ccccn1 [Compound 15]	HIV strain IIIB (wild type)	3.52
C=CC(O)c1c(COC)nc(Nc2ccc(C#N)cc2)nc1Nc1c(C)cc(/C=C/C#N)cc1C (centres unmarked) [Compound 36]	HIV strain IIIB (wild type)	3.85
COCCNC(=O)c1c(COC)nc(Nc2ccc(C#N)cc2)nc1Nc1c(C)cc(C=CC#N)cc1C (mixture of isomers) [Compound 10]	HIV strain IIIB (wild type)	3.44

Now examine the next entry.
Query string: Quick one: pSI (IIIB) (-log SI; SI = ratio of CC50 to EC50) for COCc1nc(Nc2ccc(C#N)cc2)nc(Oc2c(C)cc(C=CC#N)cc2C)c1C(=O)NCc1ccncc1 (mixture of isomers) [Compound 33] ?
Result string: 3.54
